Where these numbers come from: ChEMBL document CHEMBL2069235

target: Integrin alpha-4/beta-7 (Mus musculus) (UniProt Q00651+P26011); assay: Inhibition of alpha4beta7 assessed as inhibition of Mn(2+)-activated adhesion of mouse TK-1 T cells to mouse MAdCAM-1 at 50 uM incubated for 1 hr by cell adhesion assay; assay type: cell-based
Where a SMILES comes first, the peptide text is derived from it. [ ]: non-standard residue; d: D form. The star is where a group is joined. Bip(4'-Me) = Cc1ccc(-c2ccc(C[C@H](N)C(=O)O)cc2)cc1; Biotin = O=C1N[C@H]2[C@H](CS[C@H]2CCCCC(=O)*)N1
readout: inhibition (%)
Note: unit % is implicit; provide only the numeric part.

Need inhibition, item Cc1ccc(-c2ccc(C[C@H](NC(=O)[C@H](CCCNC(=N)N)NC(=O)[C@H](CCC(=O)O)NC(=O)[C@H](CCCNC(=N)N)NC(=O)[C@H](CCCNC(=N)N)NC(=O)[C@H](CCCNC(=N)N)NC(=O)[C@H](CCCNC(=N)N)NC(=O)[C@H](CCCNC(=N)N)NC(=O)[C@H](CCCNC(=N)N)NC(=O)[C@H](CCCNC(=N)N)NC(=O)[C@H](CCCNC(=N)N)NC(=O)CCCC[C@@H]3SC[C@@H]4NC(=O)N[C@@H]43)C(=O)O)cc2)cc1 (Biotin-RRRRRRRRER[Bip(4'-Me)]-OH)
47.4
